Molecular target: von Willebrand factor full length (Homo sapiens, UniProt P04275 SEQ:764-2813)
Test: filter; 43% bound at 100 nM vWF
Settings: tags: Calbiochem 681300; label: 5'-32P
REPORTED PROPERTY: Kd

Return reported Kd. Input binder: GGCGTGCAGTGCCTTCGGCCGTGCGGTGCCUCCGUCACGCC (mixed, 2'-OMe at 23, 28, 29, 31, 34-36, 3'-idT) [ARC1340]
7.4 nM
